src = patent US20140127157A1

Assay: in vitro
Details: human, HCVcc (CC50, μM), uninfected compound-treated cells, CellTiter Glo
Text: The infectious cell culture system for HCV (HCVcc) is based on a unique full length strain of genotype 2a derived from a patient with fulminant hepatitis (JFH-1). HCVcc allows the complete virus life cycle to be studied in cell culture. A chimeric strain of JFH-1, termed Jc1JFH, is capable of more robust growth in tissue culture and can be engineered to encode a reporter gene. […]
QUANTITY: CC50 (µM)
The reply should contain only the number, in µM.

stdin: Any idea what CC50 was measured for `Cc1cn(-c2cc(NC(=O)c3ccc(C)c(Nc4nccc(-c5cccnc5)n4)c3)cc(C(F)(F)F)c2)cn1` ?
stdout: 8.8

###

System: HCVrep
Assay: HCV replicon (HCVrep) luciferase assay, JFH-1-based replicon cell line
Design: species or system Hepatitis C virus (HCV)
Conditions: Hepatitis C virus; JFH-1-based replicon cell line, 72 h treatment
QUANTITY: EC50 (µM)
The reply should contain only the number, in µM.

stdin: Any idea what EC50 was measured for `Cc1cn(-c2cc(NC(=O)c3ccc(C)c(Nc4nccc(-c5cccnc5)n4)c3)cc(C(F)(F)F)c2)cn1` ?
stdout: 4.2

###

Task for the reader: assign each of the following compounds its reported CC50.
Assay: in vitro
Conditions: human

stdin: Any idea what CC50 was measured for C#Cc1cccc(Nc2ncnc3cc(OCCOC)c(OCCOC)cc23)c1 [Erlotinib, erlotinib] ?
stdout: > 25 µM

stdin: Any idea what CC50 was measured for CCN(CC)CCNC(=O)c1c(C)[nH]c(/C=C2\C(=O)Nc3ccc(F)cc32)c1C [Sunitinib, sunitinib] ?
stdout: 3.54 µM

stdin: Any idea what CC50 was measured for COc1cc2ncnc(Nc3ccc(F)c(Cl)c3)c2cc1OCCCN1CCOCC1 [Gefitinib, gefitinib] ?
stdout: 10.6 µM

stdin: Any idea what CC50 was measured for CNC(=O)c1cc(Oc2ccc(NC(=O)Nc3ccc(Cl)c(C(F)(F)F)c3)cc2)ccn1 [Sorafenib, sorafenib] ?
stdout: 5.75 µM

stdin: Any idea what CC50 was measured for Cc1cn(-c2cc(NC(=O)c3ccc(C)c(Nc4nccc(-c5cnccn5)n4)c3)cc(C(F)(F)F)c2)cn1 [Rodotinib, radotinib] ?
stdout: > 2.5 µM

stdin: Any idea what CC50 was measured for CNC(=O)c1cc(Oc2ccc(NC(=O)Nc3ccc(Cl)c(C(F)(F)F)c3)c(F)c2)ccn1 [Regorafenib, regorafenib] ?
stdout: > 2.5 µM

stdin: Any idea what CC50 was measured for Cc1nc(Nc2ncc(C(=O)Nc3c(C)cccc3Cl)s2)cc(N2CCN(CCO)CC2)n1 [Dasatinib, dasatinib] ?
stdout: 18.7 µM

stdin: Any idea what CC50 was measured for Cc1cn(-c2cc(NC(=O)c3ccc(C)c(Nc4nccc(-c5cccnc5)n4)c3)cc(C(F)(F)F)c2)cn1 [Nilotinib, nilotinib] ?
stdout: 8.77 µM

stdin: Any idea what CC50 was measured for Cc1ccc(NC(=O)c2ccc(CN3CCN(C)CC3)cc2)cc1Nc1nc(-c2cccnc2)cs1 [Masitinib, masitinib] ?
stdout: 6.27 µM

###

Task for the reader: assign each of the following compounds its reported log10 EC50.
Test system: HCVcc
Assay: microbe, parasite or virus in culture
Settings: Hepatitis C virus, Huh7.5
Values reflect log10 of reported EC50 (µM).

stdin: Any idea what log10 EC50 was measured for `Cc1ccc(C(=O)Nc2ccc(CN3CCN(C)CC3)c(C(F)(F)F)c2)cc1C#Cc1cnc2cccnn12` ?
stdout: -1.30

stdin: Any idea what log10 EC50 was measured for `Cc1nc(Nc2ncc(C(=O)Nc3c(C)cccc3Cl)s2)cc(N2CCN(CCO)CC2)n1` ?
stdout: 0.17

stdin: Any idea what log10 EC50 was measured for `CCN(CC)CCNC(=O)c1c(C)[nH]c(/C=C2\C(=O)Nc3ccc(F)cc32)c1C` ?
stdout: -0.03

stdin: Any idea what log10 EC50 was measured for `CNC(=O)c1cc(Oc2ccc(NC(=O)Nc3ccc(Cl)c(C(F)(F)F)c3)c(F)c2)ccn1` ?
stdout: -0.48

stdin: Any idea what log10 EC50 was measured for `Cc1cn(-c2cc(NC(=O)c3ccc(C)c(Nc4nccc(-c5cnccn5)n4)c3)cc(C(F)(F)F)c2)cn1` ?
stdout: -1.40
